assayed.target: T1, ADI-70330
T1 construct: anti-CD3 antibody made in CHO cells, captured by anti-human Fc
T1 sequence (VH, as listed by the source limits assumed, chain 1 of 2): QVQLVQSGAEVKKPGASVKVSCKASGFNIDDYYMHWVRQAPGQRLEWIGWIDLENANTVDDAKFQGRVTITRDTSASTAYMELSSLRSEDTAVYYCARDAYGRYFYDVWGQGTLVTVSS
T1 sequence (VL, as listed by the source limits assumed, chain 2 of 2): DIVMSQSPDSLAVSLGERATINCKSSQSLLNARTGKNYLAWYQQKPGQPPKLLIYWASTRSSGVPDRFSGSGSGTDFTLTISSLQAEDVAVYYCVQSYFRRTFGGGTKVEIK
protocol.text: SPR Carterra avidity, yeast anti-ID
# pKd values compiled below
Hey, just a heads up that pKd is the negative log base 10 of the concentration in molar.

Solved entries (count: 3):
binder: ADI-34134 IgG (antibody, V domains shown) VH: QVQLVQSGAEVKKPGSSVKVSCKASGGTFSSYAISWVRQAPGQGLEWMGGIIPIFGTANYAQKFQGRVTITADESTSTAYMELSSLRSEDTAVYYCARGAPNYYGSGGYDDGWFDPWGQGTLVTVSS VL: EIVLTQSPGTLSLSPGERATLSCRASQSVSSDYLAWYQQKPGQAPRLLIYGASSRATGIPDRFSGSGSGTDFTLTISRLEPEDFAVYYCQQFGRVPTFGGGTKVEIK
value.measured: 7.89

binder: ADI-34138 (antibody, V domains shown, anti-ID IgG) VH: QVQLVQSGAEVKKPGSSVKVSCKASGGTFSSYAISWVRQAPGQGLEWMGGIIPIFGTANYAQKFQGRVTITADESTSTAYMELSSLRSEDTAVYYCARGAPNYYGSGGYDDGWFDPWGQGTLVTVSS VL: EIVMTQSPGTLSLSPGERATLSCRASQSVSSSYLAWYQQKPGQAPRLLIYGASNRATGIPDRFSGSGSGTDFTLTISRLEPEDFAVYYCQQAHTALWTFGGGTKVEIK
value.measured: 7.35

binder: ADI-30242 (antibody, V domains shown, anti-ID IgG) VH: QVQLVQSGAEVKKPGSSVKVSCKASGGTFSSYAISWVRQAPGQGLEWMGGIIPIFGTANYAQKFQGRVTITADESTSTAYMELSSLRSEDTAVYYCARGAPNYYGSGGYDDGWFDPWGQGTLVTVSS VL: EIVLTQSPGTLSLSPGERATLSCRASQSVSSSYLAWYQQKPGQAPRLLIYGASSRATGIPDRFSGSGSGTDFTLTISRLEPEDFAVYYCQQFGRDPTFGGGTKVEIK
value.measured: 7.40

Now for a further binder.
-- ask Annotate the binder ADI-34137 (antibody, V domains shown, anti-ID IgG) VH: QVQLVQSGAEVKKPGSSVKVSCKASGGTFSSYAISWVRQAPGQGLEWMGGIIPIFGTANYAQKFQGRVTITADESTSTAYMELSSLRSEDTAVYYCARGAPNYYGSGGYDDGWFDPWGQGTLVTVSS VL: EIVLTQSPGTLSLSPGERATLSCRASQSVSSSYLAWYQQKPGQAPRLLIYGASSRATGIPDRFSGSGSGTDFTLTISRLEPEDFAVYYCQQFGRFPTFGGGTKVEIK with its measured pKd.
-- reply 9.52
